src = PubChem BioAssay AID248

# reported T/C; entries follow
Test system: L1210 leukemia ip in BDF1 mice, survival T/C
ASSAY: NCI In Vivo Anticancer Drug Screen. Data for tumor model L1210 Leukemia (intraperitoneal) in B6D2F1 (BDF1) mice
TEST CONDITIONS: endpoint: mean survival time; dose: 12.5 mg/kg/injection; schedule: Q01DX009 (ip); vehicle: saline with Tween-80; higher = longer survival
Toxic doses and inconclusive results are not listed.

Some solved cases for reference:
Nc1nc(N)c2cc(NCc3ccccc3Cl)ccc2n1 ... 95 % of control
CS(=O)(=O)ON1C(=O)c2ccccc2C1=O ... 98 % of control

// moving on: another record for T/C
Challenge: Which T/C is listed for COC(=O)C(CCCCN=Cc1ccccc1O)N=Cc1ccccc1O.[Cu] (stereo not drawn) ?
Response given: 93 % of control
